# assayed-target: PAS domain-containing serine/threonine-protein kinase (Homo sapiens)
# measurement-context: at 0.1 µM
# Description: GSK_PKIS: PASK mean inhibition at 0.1 uM [Nanosyn]
outcome-measure: inhibition (%)
All answers are understood in %, so give the number only.

API: value(readout= inhibition, system= PAS domain-containing serine/threonine-protein kinase (Homo sapiens), query= CN(c1ccc(NC(=O)NCCN2CCOCC2)cc1)c1ccnc(Nc2ccc(CS(C)(=O)=O)cc2)n1 ) 0.41

API: value(readout= inhibition, system= PAS domain-containing serine/threonine-protein kinase (Homo sapiens), query= NS(=O)(=O)c1cccc(N/C=C2\C(=O)Nc3ccccc32)c1 ) -0.26

API: value(readout= inhibition, system= PAS domain-containing serine/threonine-protein kinase (Homo sapiens), query= COc1ccccc1-c1cc(/C=C2\C(=O)Nc3ncc(Br)cc32)cc(Br)c1O ) -1.52

API: value(readout= inhibition, system= PAS domain-containing serine/threonine-protein kinase (Homo sapiens), query= CCOc1ccc2c(-c3ccnc(Nc4cc(OC)cc(C(F)(F)F)c4)n3)cnn2n1 ) 0

API: value(readout= inhibition, system= PAS domain-containing serine/threonine-protein kinase (Homo sapiens), query= O=C(O[C@H]1CN[C@H](C#Cc2cc3ncnc(Nc4ccc5c(ccn5Cc5cc(F)ccc5F)c4)c3s2)C1)N1CCOCC1 ) 0.1

API: value(readout= inhibition, system= PAS domain-containing serine/threonine-protein kinase (Homo sapiens), query= CC1(C)CC(n2cnc(-c3ccc(F)cc3)c2-c2ccnc(N)n2)CC(C)(C)N1 ) -1.3

API: value(readout= inhibition, system= PAS domain-containing serine/threonine-protein kinase (Homo sapiens), query= COc1cc(Nc2ncc(-c3ccccc3)o2)cc(OC)c1 ) -1.02

API: value(readout= inhibition, system= PAS domain-containing serine/threonine-protein kinase (Homo sapiens), query= Cc1cc(O)cc(C)c1/C=C/c1cncc(C(N)=O)c1 ) 0.45

API: value(readout= inhibition, system= PAS domain-containing serine/threonine-protein kinase (Homo sapiens), query= COC(=O)Nc1nc2cc(Oc3ccc(NC(=O)Nc4ccccc4)cc3)ccc2[nH]1 ) 0.34

API: value(readout= inhibition, system= PAS domain-containing serine/threonine-protein kinase (Homo sapiens), query= Cc1c2ccc(N(C)c3ccnc(Nc4cccc(S(N)(=O)=O)c4)n3)cc2nn1C ) 0.26

====

Record form. Attribute: inhibition. Fill in for each entry.
# assayed-target: Muscle, skeletal receptor tyrosine-protein kinase (Homo sapiens) (UniProt O15146);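 further: values are mean inhibition of MuSK from the GSK PKIS kinase screening panel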
# Sequence (whole entry): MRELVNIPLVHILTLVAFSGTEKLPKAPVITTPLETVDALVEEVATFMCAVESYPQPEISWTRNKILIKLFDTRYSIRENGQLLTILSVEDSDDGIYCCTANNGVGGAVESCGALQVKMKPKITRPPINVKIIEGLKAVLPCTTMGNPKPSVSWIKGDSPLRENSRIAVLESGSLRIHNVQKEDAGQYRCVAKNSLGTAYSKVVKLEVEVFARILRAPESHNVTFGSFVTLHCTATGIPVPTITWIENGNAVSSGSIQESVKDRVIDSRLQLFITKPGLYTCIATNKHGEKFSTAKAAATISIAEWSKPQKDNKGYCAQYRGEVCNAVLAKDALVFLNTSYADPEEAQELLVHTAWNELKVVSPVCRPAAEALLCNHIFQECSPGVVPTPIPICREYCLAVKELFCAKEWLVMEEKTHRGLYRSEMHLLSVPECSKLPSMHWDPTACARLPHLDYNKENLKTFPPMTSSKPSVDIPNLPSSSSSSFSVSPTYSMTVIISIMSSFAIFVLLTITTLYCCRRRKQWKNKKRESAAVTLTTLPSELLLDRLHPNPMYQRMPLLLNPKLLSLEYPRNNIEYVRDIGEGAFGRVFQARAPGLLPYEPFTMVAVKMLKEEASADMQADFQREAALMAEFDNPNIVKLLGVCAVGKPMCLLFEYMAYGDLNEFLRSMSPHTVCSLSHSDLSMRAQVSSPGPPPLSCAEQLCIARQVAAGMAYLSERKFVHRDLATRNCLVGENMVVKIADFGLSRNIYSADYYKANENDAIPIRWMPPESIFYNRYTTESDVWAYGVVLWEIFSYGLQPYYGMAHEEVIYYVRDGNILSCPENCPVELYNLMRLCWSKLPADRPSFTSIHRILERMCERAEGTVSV
# measurement-context: at 0.1 µM
All answers are understood in %, so give the number only.

// inhibition lookup, key: COC(=O)Nc1nc2cc(Oc3ccc(NC(=O)Nc4ccccc4)cc3)ccc2[nH]1 3.96

// inhibition lookup, key: Cc1cc(O)cc(C)c1/C=C/c1cncc(C(N)=O)c1 3.77

// inhibition lookup, key: NS(=O)(=O)c1cccc(N/C=C2\C(=O)Nc3ccccc32)c1 4.44

// inhibition lookup, key: O=C(Nc1n[nH]c2nnc(-c3cccnc3)cc12)C1CC1 -0.19

// inhibition lookup, key: COc1cccc(-n2ncc3c(N/N=C/c4ccc(C(=O)NCCN(C)C)cc4)ncnc32)c1 40.4

====

# assayed-target: Tyrosine-protein kinase Lck (Homo sapiens) (UniProt P06239);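 further: reported Lck percent inhibition is a mean value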
# Sequence (P06239 2-509 limits assumed): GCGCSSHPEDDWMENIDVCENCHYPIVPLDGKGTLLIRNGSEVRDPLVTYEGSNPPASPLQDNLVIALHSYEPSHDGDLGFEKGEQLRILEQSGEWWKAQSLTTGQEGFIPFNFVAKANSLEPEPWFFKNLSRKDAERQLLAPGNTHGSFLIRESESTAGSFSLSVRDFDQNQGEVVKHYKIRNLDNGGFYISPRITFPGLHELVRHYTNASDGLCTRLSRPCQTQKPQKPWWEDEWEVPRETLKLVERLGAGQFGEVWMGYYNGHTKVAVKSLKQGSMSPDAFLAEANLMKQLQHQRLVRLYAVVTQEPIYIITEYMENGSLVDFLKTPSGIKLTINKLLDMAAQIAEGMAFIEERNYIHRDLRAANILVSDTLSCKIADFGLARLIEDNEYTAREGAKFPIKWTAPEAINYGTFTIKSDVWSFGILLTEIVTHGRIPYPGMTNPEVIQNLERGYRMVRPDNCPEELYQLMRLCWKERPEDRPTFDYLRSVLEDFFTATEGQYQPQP
# measurement-context: at 1 µM
Record form. Attribute: inhibition. Fill in for each entry.
All answers are understood in %, so give the number only.

// inhibition lookup, key: CCN1CCC(C(=O)Nc2n[nH]c3nnc(-c4cccc(F)c4F)cc23)CC1 2.23

// inhibition lookup, key: Cc1ccc(-c2cc3c(NC(=O)C4CC4)ncnc3o2)cc1 11.2

// inhibition lookup, key: COc1ccccc1-c1cc(/C=C2\C(=O)Nc3ncc(Br)cc32)cc(Br)c1O 8.22

// inhibition lookup, key: COC(=O)Nc1nc2ccc(Oc3ccc(NC(=O)Nc4cc(C(F)(F)F)ccc4F)cc3)cc2s1 47.1

// inhibition lookup, key: O=C(O[C@H]1CN[C@H](C#Cc2cc3ncnc(Nc4ccc5c(ccn5Cc5cc(F)ccc5F)c4)c3s2)C1)N1CCOCC1 4.87

// inhibition lookup, key: COc1ccc(Nc2ncc(-c3ccccc3)o2)cc1OC 21.2

// inhibition lookup, key: NS(=O)(=O)c1ccc(N/N=C2\C(=O)Nc3ccc(C(=O)NCc4ccncc4)cc32)cc1 8.27

====

# assayed-target: Interleukin-1 receptor-associated kinase 4 (Homo sapiens);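 further: mean inhibition values, from the GSK PKIS dataset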
# Sequence (whole entry): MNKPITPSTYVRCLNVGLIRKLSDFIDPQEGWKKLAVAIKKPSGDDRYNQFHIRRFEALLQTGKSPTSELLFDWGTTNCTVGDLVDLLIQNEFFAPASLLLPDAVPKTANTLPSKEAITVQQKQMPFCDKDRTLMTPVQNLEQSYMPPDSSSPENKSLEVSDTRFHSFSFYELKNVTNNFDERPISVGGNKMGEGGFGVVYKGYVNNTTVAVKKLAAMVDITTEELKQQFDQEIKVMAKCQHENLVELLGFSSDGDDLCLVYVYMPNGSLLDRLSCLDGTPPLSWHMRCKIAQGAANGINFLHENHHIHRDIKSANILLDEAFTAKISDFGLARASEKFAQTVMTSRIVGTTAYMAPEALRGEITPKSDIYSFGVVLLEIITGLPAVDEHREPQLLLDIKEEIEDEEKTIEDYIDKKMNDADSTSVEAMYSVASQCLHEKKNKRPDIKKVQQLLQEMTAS
# measurement-context: at 1 µM
Record form. Attribute: inhibition. Fill in for each entry.
All answers are understood in %, so give the number only.

// inhibition lookup, key: COc1ccc2ncn(-c3cc(O[C@H](C)c4ccccc4C(F)(F)F)c(C(N)=O)s3)c2c1 0.87

// inhibition lookup, key: COc1cccc(-n2ncc3c(N/N=C/c4ccc(C(=O)NCCN(C)C)cc4)ncnc32)c1 1.87

// inhibition lookup, key: COC(=O)Nc1nc2cc(Oc3ccc(NC(=O)Nc4ccccc4)cc3)ccc2[nH]1 0.86

// inhibition lookup, key: Cc1cc(O)cc(C)c1/C=C/c1cncc(C(N)=O)c1 0.71

// inhibition lookup, key: COc1cc2c(cc1Nc1nc(Nc3cccc(F)c3C(N)=O)c3cc[nH]c3n1)N(C(=O)CN1CCN(C(C)C)CC1)CC2 -0.43

====

# assayed-target: Ephrin type-A receptor 3 (Homo sapiens);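 further: mean inhibition value reported from the GSK PKIS kinase profiling screen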
# measurement-context: at 1 µM
outcome-measure: inhibition (%)
All answers are understood in %, so give the number only.

API: value(readout= inhibition, system= Ephrin type-A receptor 3 (Homo sapiens), query= O=C1Nc2ccccc2/C1=C1\CCc2cc(O)ccc21 ) 4.39

API: value(readout= inhibition, system= Ephrin type-A receptor 3 (Homo sapiens), query= CCOc1ccc2c(-c3ccnc(Nc4cc(OC)cc(C(F)(F)F)c4)n3)cnn2n1 ) 1.98

API: value(readout= inhibition, system= Ephrin type-A receptor 3 (Homo sapiens), query= COc1c(C(N)=O)cc(-c2ccc(Cl)cc2)cc1-c1ccc(S(N)(=O)=O)cc1 ) 4.11

API: value(readout= inhibition, system= Ephrin type-A receptor 3 (Homo sapiens), query= CC1=C(C(=O)Nc2ccc3[nH]ncc3c2)C(c2ccc(F)cc2)N=C(c2ccc(C(F)(F)F)nc2)N1 (stereo not given) ) 3.54

API: value(readout= inhibition, system= Ephrin type-A receptor 3 (Homo sapiens), query= O=C(Nc1n[nH]c2nnc(-c3cccnc3)cc12)C1CC1 ) -0.05
